Source listed as patent US12448433B2.

Recorded IC50 by entry
study target: DPB1*05:01
assay procedure: Peptide binding to HLA-DP allele, competition assay
property measured: IC50 (µM)

>>> measured_value("CC(C)C[C@H](NC(=O)[C@H](CC(C)C)NC(=O)[C@H](Cc1ccccc1)NC(=O)[C@H](CCCCN)NC(=O)[C@H](CO)NC(=O)[C@H](Cc1ccc(O)cc1)NC(=O)[C@H](CC(C)C)NC(=O)[C@@H](N)CCC(N)=O)C(=O)N[C@@H](CCCCN)C(=O)N[C@@H](C)C(=O)N[C@@H](CCC(=O)O)C(=O)N1CCC[C@H]1C(=O)N[C@@H](CC(C)C)C(=O)N[C@@H](C)C(=O)N[C@@H](Cc1ccccc1)C(=O)O [Peptide 3563.0011]")
0.083
>>> measured_value("CC[C@H](C)[C@H](NC(=O)[C@H](CC(N)=O)NC(=O)[C@H](CCCCN)NC(=O)[C@H](CC(C)C)NC(=O)[C@H](Cc1ccccc1)NC(=O)[C@H](CCCNC(=N)N)NC(=O)[C@H](CC(C)C)NC(=O)[C@H](Cc1c[nH]cn1)NC(=O)CNC(=O)[C@@H](N)CCC(=O)O)C(=O)N[C@H](C(=O)N[C@@H](CC(C)C)C(=O)N1CCC[C@H]1C(=O)N[C@H](C(=O)N[C@@H](Cc1ccc(O)cc1)C(=O)O)C(C)C)[C@@H](C)CC [Peptide 3563.0021]")
4.61
>>> measured_value("CC[C@H](C)[C@H](NC(=O)CNC(=O)[C@H](CCSC)NC(=O)[C@H](CC(N)=O)NC(=O)[C@@H](NC(=O)[C@@H](NC(=O)[C@H](Cc1ccccc1)NC(=O)[C@H](CCC(=O)O)NC(=O)[C@@H](N)C(C)C)C(C)C)[C@@H](C)O)C(=O)N[C@H](C(=O)N[C@H](C(=O)N1CCC[C@H]1C(=O)N[C@@H](CC(=O)O)C(=O)N[C@@H](Cc1ccccc1)C(=O)N[C@@H](C)C(=O)O)[C@@H](C)CC)[C@@H](C)CC [Peptide 3563.0007]")
6.69
